Counter-ions that a name gives are not always drawn.
measure: melting point

compound="Cl.O=c1cc(-c2ccc(C(F)(F)F)nc2)ccn1-c1ccc2c3c([nH]c2c1)CC1CCC3N1 (stereo not drawn)" measure="melting point" result="215 to 235 °C (dec.)"
compound="Cl.Cn1c2c(c3ccc(-n4ccc(OCc5ccc(C(F)(F)F)nc5)cc4=O)cc31)C1CCCC(C2)N1 (stereo not drawn)" measure="melting point" result="240 to 250 °C"
compound="O=c1cc(OCc2ccc(F)cn2)ccn1-c1ccc2c3c([nH]c2c1)CC1CCC3N1 (stereo not drawn) (as salt: hydrochloride) [Example 9, dihydrochloride]" measure="melting point" result="205 to 211 °C (dec.)"
compound="CN1C2CCCC1c1c(n(C)c3cc(-n4ccc(OCc5ccccc5)cc4=O)ccc13)C2.Cl (stereo not drawn)" measure="melting point" result="161 to 180 °C"
compound="CC(=O)N1C2CCC1c1c([nH]c3cc(-n4ccc(OCc5ccccc5)cc4=O)ccc13)C2 (single isomer, unassigned; enantiomer a) (as salt: hydrochloride)" measure="melting point" result="140 to 170 °C"
compound="Cn1c2c(c3ccc(-n4ccc(OCc5ccc(F)cn5)cc4=O)cc31)C1CCC(C2)N1 (stereo not drawn) (as salt: hydrochloride) [Example 6, dihydrochloride]" measure="melting point" result="180 to 190 °C"
compound="Cl.Cn1c2c(c3ccc(-n4ccc(OCc5ccccn5)cc4=O)cc31)C1CCC(C2)N1 (stereo not drawn)" measure="melting point" result="175 to 195 °C"
compound="CN1C2CCC1c1c(n(C)c3cc(-n4ccc(OCc5ccccc5)cc4=O)ccc13)C2.Cl (stereo not drawn)" measure="melting point" result="121 to 128 °C"
compound="Cl.Cn1c2c(c3ccc(-n4ccc(OCc5ccccc5)cc4=O)nc31)C1CCCC(C2)N1 (stereo not drawn)" measure="melting point" result="191 to 206 °C"
compound="Cl.O=c1cc(OCc2ccccn2)ccn1-c1ccc2c3c([nH]c2c1)CC1CCC3N1 (stereo not drawn)" measure="melting point" result="220 to 230 °C"
compound="Cn1c2c(c3ccc(-n4ccc(-c5ccc(C(F)(F)F)nc5)cc4=O)cc31)C1CCC(C2)N1 (stereo not drawn) (as salt: hydrochloride) [Example 5, dihydrochloride]" measure="melting point" result="228 to 233 °C"
compound="Cl.O=c1cc(OCc2ccccc2)ccn1-c1ccc2c3c([nH]c2c1)CC1CCC3N1 (single isomer, unassigned; enantiomer b) [Example 20]" measure="melting point" result="211 to 217 °C"

====

target_of_assay: human MCH-1 receptor (Homo sapiens (Human), UniProt Q99705)
Sequence (Q99705 whole entry): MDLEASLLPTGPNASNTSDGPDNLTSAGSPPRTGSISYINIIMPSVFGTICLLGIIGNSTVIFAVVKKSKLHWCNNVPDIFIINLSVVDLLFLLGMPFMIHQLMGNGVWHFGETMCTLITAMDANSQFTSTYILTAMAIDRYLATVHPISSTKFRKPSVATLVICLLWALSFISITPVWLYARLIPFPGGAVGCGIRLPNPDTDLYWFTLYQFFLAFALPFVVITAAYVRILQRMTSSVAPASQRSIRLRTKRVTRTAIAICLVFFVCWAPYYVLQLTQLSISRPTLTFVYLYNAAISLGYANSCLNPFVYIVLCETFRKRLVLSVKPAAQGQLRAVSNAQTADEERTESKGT
assay_remarks: Binding Assay for Human Melanin-Concentrating Hormone (MCH-1) Receptor (radioligand displacement, CHO-K1 membranes)
particulars: membranes from CHO-K1 cells expressing human MCH1 receptor; [3H]-labeled radioligand; Ki from IC50 by Cheng Prusoff; read-out: MCH-1 Ki
pKi: −log10 of the molar value. Counter-ions that a name gives are not always drawn.
measure: pKi

compound="Cn1c2c(c3ccc(N4CCN(CCc5ccc(Cl)cc5)CC4=O)nc31)C1CCC(C2)N1 (stereo not drawn) [Example 46, dihydrochloride]" result=7.00
compound="Cn1c2c(c3ccc(-n4ccc(OCc5ccc(F)cn5)cc4=O)cc31)C1CCC(C2)N1 (stereo not drawn) [Example 6, dihydrochloride]" result=7.87
compound="Cn1c2c(c3ccc(-n4ccc(-c5ccc(C(F)(F)F)cc5)cc4=O)nc31)C1CCC(C2)N1 (stereo not drawn) [Example 50, hydrochloride]" result=7.72

====

# Lookup of reported pKi keyed by entry
target_of_assay: human MCH-1 receptor (Homo sapiens (Human), UniProt Q99705)
assay_remarks: Binding Assay for Human Melanin-Concentrating Hormone (MCH-1) Receptor (radioligand displacement, CHO-K1 membranes)
particulars: membranes from CHO-K1 cells expressing human MCH1 receptor; [3H]-labeled radioligand; Ki from IC50 by Cheng Prusoff; read-out: MCH-1 Ki
Protocol: Evaluation of the affinity of compounds for the human MCH-1 receptor was accomplished using 4-(3,4,5-tritritiumbenzyloxy)-1-(1-(2-(pyrrolidin-1-yl)ethyl)-1H-indazol-5-yl)pyridin-2(1H)-one and membranes prepared from stable CHO-K1 cells expressing the human MCH1 receptor obtained from Euroscreen (Batch 1138). […] Nonspecific binding was determined in the presence of 50 μM 1-(5-(4-cyanophenyl)bicyclo[3.1.0]hexan-2-yl)-3-(4-fluoro-3-(trifluoromethyl)phenyl)-1-(3-(4-methylpiperazin-1-yl)propyl)urea. […]
pKi: −log10 of the molar value.
measure: pKi

compound="Cl.Cn1c2c(c3ccc(-n4ccc(-c5ccc(C(F)(F)F)nc5)cc4=O)cc31)C1CCCC(C2)N1 (stereo not shown) [Example 13, hydrochloride]" measure=pKi result=7.33
compound="CC(=O)N1C2CCC1c1c(n(C)c3cc(-n4ccc(OCc5ccccc5)cc4=O)ccc13)C2 (stereo not shown)" measure=pKi result=6.88
compound="Cl.Cn1c2c(c3ccc(-n4ccc(OCc5ccc(C(F)(F)F)nc5)cc4=O)cc31)C1CCCC(C2)N1 (stereo not shown) [Example 19, hydrochloride]" measure=pKi result=7.89
compound="Cn1c2c(c3ccc(-n4ccc(-c5ccc(C(F)(F)F)cn5)cc4=O)cc31)C1CCC(C2)N1 (single isomer, unassigned; enantiomer b) [Example 16]" measure=pKi result=7.85

====

target_of_assay: human MCH-1 receptor (Homo sapiens (Human))
assay_remarks: Binding Assay for Human Melanin-Concentrating Hormone (MCH-1) Receptor (radioligand displacement, CHO-K1 membranes)
particulars: membranes from CHO-K1 cells expressing human MCH1 receptor; [3H]-labeled radioligand; Ki from IC50 by Cheng Prusoff; read-out: MCH-1 Ki
pKi: −log10 of the molar value. Where a name gives a salt, the structure may show the parent alone.
# Lookup of reported pKi keyed by entry
measure: pKi

compound="Cl.O=c1cc(-c2ccc(C(F)(F)F)nc2)ccn1-c1ccc2c3c([nH]c2c1)CC1CCC3N1 (stereo not shown) [Example 10, hydrochloride]" result=7.64
compound="Cn1c2c(c3ccc(-n4ccc(OCc5ccc(F)cc5F)cc4=O)nc31)C1CCC(C2)N1 (stereo not shown) [Example 45, hydrochloride]" result=7.59
compound="Cl.Cn1c2c(c3ccc(-n4ccc(OCc5ccccc5)cc4=O)nc31)C1CCCC(C2)N1 (stereo not shown) [Example 41, hydrochloride]" result=7.52
compound="Cc1ccc(COc2cnn(-c3ccc4c5c(n(C)c4c3)CC3CCCC5N3)c(=O)c2)cn1.Cl (stereo not shown) [Example 18, hydrochloride]" result=7.14
compound="Cl.O=c1cc(OCc2ccccc2)ccn1-c1ccc2c3c([nH]c2c1)CC1CCC3N1 (stereo not shown) [Example 8, hydrochloride]" result=8.01
compound="Cn1c2c(c3ccc(-n4ccc(OCc5ccccc5)cc4=O)cc31)C1CCCC(C2)N1 (stereo not shown) [Example 12, hydrochloride]" result=8.03
compound="CN1C2CCCC1c1c(n(C)c3cc(-n4ccc(OCc5ccccc5)cc4=O)ccc13)C2.Cl (stereo not shown) [Example 31, hydrochloride]" result=7.85

====

target_of_assay: human MCH-1 receptor (Homo sapiens (Human), UniProt Q99705)
assay_remarks: Binding Assay for Human Melanin-Concentrating Hormone (MCH-1) Receptor (radioligand displacement, CHO-K1 membranes)
particulars: membranes from CHO-K1 cells expressing human MCH1 receptor; [3H]-labeled radioligand; Ki from IC50 by Cheng Prusoff; read-out: MCH-1 Ki
pKi: −log10 of the molar value. Counter-ions that a name gives are not always drawn.
# Lookup of reported pKi keyed by entry
measure: pKi

compound="Cn1c2c(c3ccc(-n4ncc(OCc5ccc(F)cn5)cc4=O)cc31)C1CCCC(C2)N1 (stereo not shown) [Example 17, hydrochloride]" result=7.55
compound="CN1C2CCC1c1c(n(C)c3nc(-n4ccc(OCc5ccccc5)cc4=O)ccc13)C2 (stereo not shown) [Example 42, hydrochloride]" result=7.57
compound="CN1C2CCC1c1c(n(C)c3cc(-n4ccc(OCc5ccccc5)cc4=O)ccc13)C2.Cl (stereo not shown) [Example 26, hydrochloride]" result=8.01
compound="Cn1c2c(c3ccc(-n4ccc(-c5cnc(C(F)(F)F)nc5)cc4=O)cc31)C1CCC(C2)N1 (stereo not shown) [Example 7, hydrochloride]" result=7.17
compound="CCN1C2CCCC1c1c(n(C)c3cc(-n4ccc(OCc5ccccc5)cc4=O)ccc13)C2 (stereo not shown) [Example 32, hydrochloride]" result=7.82
compound="Cl.O=c1cc(OCc2ccccn2)ccn1-c1ccc2c3c([nH]c2c1)CC1CCC3N1 (stereo not shown) [Example 22, hydrochloride]" result=7.60
compound="CC(C)N1C2CCC1c1c(n(C)c3cc(-n4ccc(OCc5ccccc5)cc4=O)ccc13)C2 (stereo not shown) [Example 28, hydrochloride]" result=7.92

====

target_of_assay: human MCH-1 receptor (Homo sapiens (Human), UniProt Q99705)
assay_remarks: Binding Assay for Human Melanin-Concentrating Hormone (MCH-1) Receptor (radioligand displacement, CHO-K1 membranes)
particulars: membranes from CHO-K1 cells expressing human MCH1 receptor; [3H]-labeled radioligand; Ki from IC50 by Cheng Prusoff; read-out: MCH-1 Ki
pKi: −log10 of the molar value. Structures can show the parent of a compound that is named as a salt.
measure: pKi

molecule="Cn1c2c(c3ccc(-n4ccc(-c5ccc(C(F)(F)F)nc5)cc4=O)nc31)C1CCC(C2)N1 (centres unmarked) [Example 44, hydrochloride]" target_of_assay="human MCH-1 receptor (Homo sapiens (Human), UniProt Q99705)" result=6.96
molecule="O=c1cc(OCc2ccc(F)cn2)ccn1-c1ccc2c3c([nH]c2c1)CC1CCC3N1 (centres unmarked) [Example 9, dihydrochloride]" target_of_assay="human MCH-1 receptor (Homo sapiens (Human), UniProt Q99705)" result=7.60
molecule="Cn1c2c(c3ccc(-n4ccc(OCc5ccc(Cl)cc5Cl)cc4=O)nc31)C1CCC(C2)N1 (centres unmarked) [Example 48, hydrochloride]" target_of_assay="human MCH-1 receptor (Homo sapiens (Human), UniProt Q99705)" result=7.55
molecule="Cl.Cn1c2c(c3ccc(-n4ccc(OCc5ccc(F)cn5)cc4=O)nc31)C1CCCC(C2)N1 (centres unmarked) [Example 40, hydrochloride]" target_of_assay="human MCH-1 receptor (Homo sapiens (Human), UniProt Q99705)" result=7.31
molecule="Cn1c2c(c3ccc(-n4ccc(OCc5ccc(F)cn5)cc4=O)nc31)C1CCC(C2)N1 (centres unmarked) [Example 43, hydrochloride]" target_of_assay="human MCH-1 receptor (Homo sapiens (Human), UniProt Q99705)" result=7.42
molecule="Cl.Cn1c2c(c3ccc(-n4ccc(OCc5ccccn5)cc4=O)cc31)C1CCC(C2)N1 (centres unmarked) [Example 23, hydrochloride]" target_of_assay="human MCH-1 receptor (Homo sapiens (Human), UniProt Q99705)" result=7.77
molecule="Cn1c2c(c3ccc(-n4ccc(OCc5ccccc5)cc4=O)cc31)C1CCC(C2)N1 (centres unmarked) [Example 2, hydrochloride]" target_of_assay="human MCH-1 receptor (Homo sapiens (Human), UniProt Q99705)" result=7.98
molecule="Cn1c2c(c3ccc(-n4ccc(-c5ccc(C(F)(F)F)nc5)cc4=O)cc31)C1CCC(C2)N1 (centres unmarked) [Example 5, dihydrochloride]" target_of_assay="human MCH-1 receptor (Homo sapiens (Human), UniProt Q99705)" result=8.19
molecule="Cn1c2c(c3ccc(-n4ccc(OCc5ccccc5)cc4=O)nc31)C1CCC(C2)N1 (centres unmarked) [Example 39, hydrochloride]" target_of_assay="human MCH-1 receptor (Homo sapiens (Human), UniProt Q99705)" result=7.68
molecule="Cl.Cn1c2c(c3ccc(-n4ccc(-c5ccc(C(F)(F)F)nn5)cc4=O)cc31)C1CCC(C2)N1 (centres unmarked) [Example 3, hydrochloride]" target_of_assay="human MCH-1 receptor (Homo sapiens (Human), UniProt Q99705)" result=7.61
molecule="Cn1c2c(c3ccc(-n4ccc(-c5ccc(C(F)(F)F)cn5)cc4=O)cc31)C1CCC(C2)N1 (centres unmarked) [Example 4, dihydrochloride]" target_of_assay="human MCH-1 receptor (Homo sapiens (Human), UniProt Q99705)" result=7.79
molecule="Cn1c2c(c3ccc(-n4ccc(OCc5ccc(F)cn5)cc4=O)cc31)C1CCCC(C2)N1 (centres unmarked) [Example 11, dihydrochloride]" target_of_assay="human MCH-1 receptor (Homo sapiens (Human), UniProt Q99705)" result=7.67
molecule="Cc1ccc(-c2ccn(-c3ccc4c5c(n(C)c4c3)CC3CCC5N3)c(=O)c2)cn1 (single isomer, unassigned; enantiomer b) [Example 35]" target_of_assay="human MCH-1 receptor (Homo sapiens (Human), UniProt Q99705)" result=7.23
molecule="Cn1c2c(c3ccc(-n4ccc(OCc5ccc(Cl)cc5F)cc4=O)nc31)C1CCC(C2)N1 (centres unmarked) [Example 47, hydrochloride]" target_of_assay="human MCH-1 receptor (Homo sapiens (Human), UniProt Q99705)" result=7.85
